Please provide measured Ki for the entries that follow.
- measured on: Adenosine receptor A1 (Cavia porcellus, UniProt P47745)
- Sequence (P47745 whole entry): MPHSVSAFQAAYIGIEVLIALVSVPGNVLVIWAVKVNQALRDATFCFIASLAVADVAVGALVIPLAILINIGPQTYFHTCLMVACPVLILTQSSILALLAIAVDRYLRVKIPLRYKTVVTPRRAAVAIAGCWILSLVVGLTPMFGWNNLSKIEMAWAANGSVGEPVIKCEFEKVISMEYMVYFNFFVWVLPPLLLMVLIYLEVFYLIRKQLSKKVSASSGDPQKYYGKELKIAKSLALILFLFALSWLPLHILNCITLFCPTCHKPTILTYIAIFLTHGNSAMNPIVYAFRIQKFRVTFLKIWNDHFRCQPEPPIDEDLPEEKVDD
- assay method text: Binding affinity carried out with [3H]cyclohexyladenosine in guinea pig forebrain membranes against adenosine A1 receptor
- Type: cell membranes, Brain membranes
Just the number please, in nM, no unit attached.

Reported Ki for `CCCn1c(=O)c2c(nc(C(C3CC3)C3CC3)n2CCC)n(CCC)c1=O` was 13000

Reported Ki for CCCn1c(=O)c2[nH]c(C(c3ccc(F)cc3)C3CC3)nc2n(CCC)c1=O (stereo not given) was 250

Reported Ki for CCCn1c(=O)c2[nH]c(C(C)Cc3ccc(OC)cc3)nc2n(CCC)c1=O (stereo not given) was 220

Reported Ki for CCCn1c(=O)c2nc(C(c3ccccc3)C3CC3)[nH]c2n(CCC)c1=O (stereo not given) was 150

Reported Ki for `CCCn1c(=O)c2[nH]c(C(c3ccccc3)c3ccccc3)nc2n(CCC)c1=O` was 2100

Reported Ki for `CCCn1c(=O)c2c(nc(C(C3CC3)C3CC3)n2C)n(CCC)c1=O` was 7400

Reported Ki for `Cn1c(=O)c2nc(C(C3CC3)C3CC3)[nH]c2n(C)c1=O` was 81

Reported Ki for CCCn1c(=O)c2nc(C(C)N)[nH]c2n(CCC)c1=O (stereo not given) was 3000

Reported Ki for `CC(C)Cn1c(=O)n(C)c(=O)c2[nH]c(C(C3CC3)C3CC3)nc21` was 12

Reported Ki for `CCn1c(=O)c2[nH]c(C(C3CC3)C3CC3)nc2n(CC)c1=O` was 13
